# target_system: human plasma protein factor Xa (Homo sapiens, UniProt P00742)
# Construct: measure proteolytic activity of the enzyme (factor Xa)
# Sequence (P00742 235-488 limits assumed): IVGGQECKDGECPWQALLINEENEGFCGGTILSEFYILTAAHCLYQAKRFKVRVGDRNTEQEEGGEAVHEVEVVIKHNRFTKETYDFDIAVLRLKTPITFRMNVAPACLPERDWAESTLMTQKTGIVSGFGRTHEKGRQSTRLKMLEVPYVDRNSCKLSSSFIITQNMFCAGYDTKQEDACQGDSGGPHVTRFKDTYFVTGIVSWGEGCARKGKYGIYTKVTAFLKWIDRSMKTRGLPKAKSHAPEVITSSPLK
# Sequence (P00742 41-179 partner limits assumed): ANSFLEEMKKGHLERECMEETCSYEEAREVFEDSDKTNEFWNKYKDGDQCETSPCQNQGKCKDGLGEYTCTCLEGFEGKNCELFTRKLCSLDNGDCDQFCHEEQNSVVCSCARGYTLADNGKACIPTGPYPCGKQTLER
# method_description: Factor Xa IC50 determination: cleavage of paranitroanilide substrate S-2765 in 96-well plates
# condition_summary: fXa 1 nM, S-2765 100 μM, Tris buffered saline pH 7.4, room temperature
experimental_endpoint: IC50

**Q:** Provide the documented IC50 with human plasma protein factor Xa (Homo sapiens, UniProt P00742) as the system for O=C(NCC1CC(c2ccc(Nc3ccncc3)cc2)=NO1)c1ccc(Cl)s1 (centres unmarked) [Example 226]
**A:** ≤ 100 nM

**Q:** API: value(readout=IC50, system=human plasma protein factor Xa (Homo sapiens, UniProt P00742)) for record N=C(c1ccc(-c2cc(CNC(=O)c3ccc(Cl)s3)on2)cc1)N1CCC1 [Example 26]
**A:** ≤ 100 nM

**Q:** Notebook entry, human plasma protein factor Xa (Homo sapiens, UniProt P00742) assay: IC50 of CN1CCN(c2cc(-n3ccccc3=O)ccc2-n2cc(CNC(=O)c3ccc(Cl)s3)nn2)CC1 [Example 308] = ?
**A:** ≤ 100 nM

**Q:** Reported IC50 for human plasma protein factor Xa (Homo sapiens, UniProt P00742), given O=C(NCc1cc(-c2ccc(I)cc2)no1)c1ccc(Cl)s1 [Example 288] ?
**A:** ≥ 500 nM

**Q:** Query for human plasma protein factor Xa (Homo sapiens, UniProt P00742): what IC50 does the record show for CN(c1ccncc1)c1ccc(C2=NOC(CNC(=O)c3ccc(Cl)s3)C2)cc1 (centres unmarked) [Example 227] ?
**A:** ≤ 100 nM

**Q:** Give the reported IC50 for O=C(NCc1cn(-c2ccc(-n3cc(Cl)ccc3=O)cc2)nn1)c1ccc(Cl)s1 [Example 299] (system: human plasma protein factor Xa (Homo sapiens, UniProt P00742)).
**A:** ≤ 100 nM

**Q:** Look up IC50 with human plasma protein factor Xa (Homo sapiens, UniProt P00742) for this compound: O=C(NCC1CC(C2CCN(Cc3ccccc3)CC2)=NO1)c1ccc(Cl)s1 (centres unmarked) [Example 170]
**A:** ≥ 500 nM

**Q:** Entry N=C(c1ccc(-c2cc(CNC(=O)c3ccc(Cl)s3)no2)cc1)N1CCCCC1 [Example 333] , system human plasma protein factor Xa (Homo sapiens, UniProt P00742): what IC50 was measured?
**A:** ≤ 100 nM

* * *

Hi there, I'd appreciate the recorded IC50 for every entry that follows.
# target_system: human plasma protein factor Xa (Homo sapiens)
# Construct: measure proteolytic activity of the enzyme (factor Xa)
# method_description: Factor Xa IC50 determination: cleavage of paranitroanilide substrate S-2765 in 96-well plates
# condition_summary: fXa 1 nM, S-2765 100 μM, Tris buffered saline pH 7.4, room temperature

**Q:** Given the molecule N=C(c1ccc(-c2cncc(CNC(=O)c3ccc(Cl)s3)c2)cc1)N1CCC1 , what is its reported IC50?
**A:** ≤ 100 nM

**Q:** State the recorded IC50 for this entry: O=C(NCC1CC(c2ccccc2)=NO1)c1ccc(Cl)s1 (stereo not shown)
**A:** ≥ 500 nM

**Q:** Please give the measured IC50 for this molecule: CNC(=N)c1ccc(-c2nc(CNC(=O)c3ccc(Cl)s3)co2)cc1
**A:** ≥ 500 nM

**Q:** Endpoint output: IC50 of O=Cc1ccccc1-c1ccc(C2=NOC(CNC(=O)c3ccc(Cl)s3)C2)cc1 (stereo not shown) . Value?
**A:** ≥ 500 nM

**Q:** Which measured IC50 value corresponds to COc1cc(C(=N)N2CCCC2)ccc1C1=NOC(CNC(=O)c2ccc(Cl)s2)C1 (stereo not shown) ?
**A:** ≤ 100 nM

**Q:** What measured IC50 goes with CN1CCN=C1c1ccc(-c2cc(CNC(=O)c3ccc(Cl)s3)ccc2F)cc1 ?
**A:** 100 to 500 nM

**Q:** Quick one: IC50 of COCCN(C)C(=N)c1ccc(C2=NOC(CNC(=O)c3ccc(Cl)s3)C2)cc1 (stereo not shown) ?
**A:** 100 to 500 nM

**Q:** Recorded IC50 of CCN(C)C(=N)c1ccc(C2=NOC(C)(CNC(=O)c3ccc(Cl)s3)C2)cc1 (stereo not shown) , please.
**A:** ≤ 100 nM

**Q:** What value of IC50 has been reported for the following molecule? N=C(c1ccc(C2=NOC(CNC(=O)c3ccc(Cl)s3)C2)c(N2CCCCCC2)c1)N1CCCC1 (stereo not shown)
**A:** ≤ 100 nM

**Q:** Endpoint output: IC50 of O=C(NCC1CC(c2ccc(-c3ccccc3CN3CCCCC3)cc2)=NO1)c1ccc(Cl)s1 (stereo not shown) . Value?
**A:** ≤ 100 nM

**Q:** Which IC50 reading was recorded for the molecule O=C(NCc1cc(-c2ccc(-c3cccc(CN4CCCC4)c3)cc2)no1)c1ccc(Cl)s1 ?
**A:** ≥ 500 nM

**Q:** State the recorded IC50 for this entry: CN(C)Cc1ccc(Cl)cc1-c1ccc(C2=NOC(CNC(=O)c3ccc(Cl)s3)C2)cc1 (stereo not shown)
**A:** ≤ 100 nM

**Q:** // query IC50 value for entry CN(C)CCCN(C)c1ccc(C2=NOC(CNC(=O)c3ccc(Cl)s3)C2)cc1 (stereo not shown)
**A:** ≤ 100 nM

**Q:** Entry under review: O=C(NCc1cc(-c2ccc(Nc3cccnc3)cc2)no1)c1ccc(Cl)s1 . Reported IC50?
**A:** ≤ 100 nM

**Q:** Endpoint output: IC50 of C[C@H](NC(=O)c1ccc(Cl)s1)c1cc(-c2ccc(C3=NCCN3C)cc2)no1 . Value?
**A:** ≥ 500 nM

**Q:** For COC[C@H]1CCCN1C(=O)c1ccc(C2=NOC(CNC(=O)c3ccc(Cl)s3)C2)cc1 (stereo partly shown) , what is its reported IC50?
**A:** 100 to 500 nM

**Q:** Field request: IC50 | item: O=C(NCC1CC(c2ccc(N3CCN(C(=O)OCc4ccccc4)CC3=O)cc2)=NO1)c1ccc(Cl)s1 (stereo not shown)
**A:** ≤ 100 nM

**Q:** What value of IC50 has been reported for the following molecule? CN1CCN=C1c1ccc(C2=NOC(CNC(=O)c3ccc(Cl)s3)C2)c(N2CCOCC2)c1 (stereo not shown)
**A:** 100 to 500 nM

**Q:** Consider the molecule O=C(NCc1cn(-c2ccc(I)cc2F)nn1)c1ccc(Cl)s1 and give its measured IC50.
**A:** ≥ 500 nM

**Q:** Give the measured IC50 of O=C(NCC1CC(c2ccc(-c3ccccc3CN3CCCC3)cc2)=NO1)c1ccc(Cl)s1 (stereo not shown) .
**A:** ≤ 100 nM

**Q:** Any idea what IC50 was measured for CN(C)Cc1ccccc1-c1ccc(-c2cc(CNC(=O)c3ccc(Cl)s3)on2)cc1 ?
**A:** ≤ 100 nM

**Q:** What value of IC50 has been recorded for this entry: CN1CCN=C1c1ccc(-c2noc(CNC(=O)c3ccc(Cl)s3)n2)cc1
**A:** ≤ 100 nM

**Q:** Given the molecule C#CCN(C)C(=N)c1ccc(C2=NOC(CNC(=O)c3ccc(Cl)s3)C2)cc1 (stereo not shown) , what is its reported IC50?
**A:** 100 to 500 nM

**Q:** What does the data say about its IC50? Entry: N=C(c1ccc(C2=NOC(CNC(=O)c3ccc(Cl)s3)C2)c(N2CCCC2)c1)N1CCCC1 (stereo not shown)
**A:** 100 to 500 nM

**Q:** Reported IC50 for CC(NC(=O)c1ccc(Cl)s1)c1cc(-c2ccc(C(=N)N(C)C)cc2)no1 (stereo in doubt) : what is it?
**A:** ≥ 500 nM

**Q:** Given the entry CSc1cc(C2=NCCN2C)ccc1C1=NOC(CNC(=O)c2ccc(Cl)s2)C1 (stereo not shown) , report its measured IC50.
**A:** ≤ 100 nM

**Q:** Form field: reported IC50 of O=C(NCC1CC(c2ccc(Nc3ccccc3)cc2)=NO1)c1ccc(Cl)s1 (stereo not shown)
**A:** ≥ 500 nM

**Q:** Query (molecule): COc1ccc(Oc2cc(C(=N)N3CCCC3)ccc2-c2cc(CNC(=O)c3ccc(Cl)s3)on2)cc1 ; field requested: IC50
**A:** ≤ 100 nM

**Q:** May I ask what IC50 has been recorded for Nc1ccc(C2=NOC(CNC(=O)c3ccc(Cl)s3)C2)cc1 (stereo not shown) ?
**A:** ≥ 500 nM

**Q:** Give the measured IC50 of N=C(N)N1CCC(c2cc(CNC(=O)c3ccc(Cl)s3)on2)CC1 .
**A:** ≥ 500 nM

**Q:** State the recorded IC50 for this entry: COCCN(C)Cc1ccccc1-c1ccc(C2=NOC(CNC(=O)c3ccc(Cl)s3)C2)cc1 (stereo not shown)
**A:** ≤ 100 nM

**Q:** Which value of IC50 has been reported for N=C(c1ccc(C2=NOC(CNC(=O)c3ccc(Cl)s3)C2)cc1)N1CCCCC1 (stereo not shown) in the records?
**A:** 100 to 500 nM

**Q:** May I ask what IC50 has been recorded for O=C(NCC1CC(c2ccc(N3CCOCCC3=O)cc2)=NO1)c1ccc(Cl)s1 (stereo not shown) ?
**A:** ≤ 100 nM

**Q:** Look up IC50 for this molecule: COCCN(C)Cc1ccc(Cl)cc1-c1ccc(C2=NOC(CNC(=O)c3ccc(Cl)s3)C2)cc1 (stereo not shown)
**A:** 100 to 500 nM
